Sourced from ChEMBL document CHEMBL1131139

So I've got a bunch of molecules here, and I need their MIC values.
- System: Staphylococcus aureus
- test: In vitro inhibitory activity against Staphylococcus aureus (EryRi 011GO25i)
- Type: functional
Use µg/mL as the unit, but write only the number.

**Query** Value lookup for MIC; key = CC[C@H]1OC(=O)[C@H](C)C(=O)[C@H](C)[C@@H](O[C@@H]2O[C@H](C)C[C@H](N(C)C)[C@H]2O)[C@](C)(OC)C[C@@H](C)/C(=N\OC2CCNC2)[C@H](C)[C@@H](O)[C@]1(C)O (stereo partly drawn)
**Result** 5

**Query** Value lookup for MIC; key = CC[C@H]1OC(=O)[C@H](C)C(=O)[C@H](C)[C@@H](O[C@@H]2O[C@H](C)C[C@H](N(C)C)[C@H]2O)[C@](C)(OC)C[C@@H](C)/C(=N\O[C@H]2CCCNC2)[C@H](C)[C@@H](O)[C@]1(C)O
**Result** 5

**Query** Value lookup for MIC; key = CC[C@H]1OC(=O)[C@H](C)C(=O)[C@H](C)[C@@H](O[C@@H]2O[C@H](C)C[C@H](N(C)C)[C@H]2O)[C@](C)(OC)C[C@@H](C)/C(=N\OCCNCc2ccccc2)[C@H](C)[C@@H](O)[C@]1(C)O
**Result** 5
